Test system: DMPK2;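 note: KINOMEscan kinase panel screen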
Construct: gene CDC42BPG
Conditions: concentration: 1 μM, replicates: in singlicate; n = 1
Reported %Inh by item:

Before answering, review these 4 worked examples.
compound | reported value
Cc1ccc(C)c(NC(=O)NC2CCN(c3ccnc(Nc4ccc(F)cc4)n3)C2)c1 (stereo not drawn) | 0%
COc1cccc(-c2ccc3c(NC(=O)C4CC4)n[nH]c3n2)c1 | 0%
COc1cc(Nc2ncc3c(C)nc(-c4cc5ccccc5[nH]4)n3n2)cc(OC)c1OC | 0%
O=C(Nc1n[nH]c2cc(-c3ccoc3)ccc12)C1CC1 | 24%

Problem: Look at this compound and give its reported %Inh. Cl.Cl.NCC(NC(=O)c1cc(-c2ccccc2)c(-c2ccnc3[nH]ccc23)s1)c1ccccc1 (stereo not drawn)
Result: 94.7%

Problem: Look at this compound and give its reported %Inh. NCCCC(NC(=O)c1cc(Br)c(-c2ccnc3[nH]ccc23)s1)c1ccccc1.O=C(O)C(F)(F)F.O=C(O)C(F)(F)F (stereo not drawn)
Result: 94.2%
